Protocol Details: cn = amount concentration of the nth substance listed, in mol/dm3
Settings: 303.15 K; 101 kPa; Liquid; c1 = 0.6
Endpoint Label: viscosity (mPa·s)

>  <Compound>
OC[C@@H](O)[C@H](O)[C@@H](O)CO [xylitol] + O

>  <Obs Value>
1.021

$$$$
>  <Compound>
OC[C@@H](O)[C@@H](O)CO [meso-1,2,3,4-butanetetrol] + O

>  <Obs Value>
0.9634

$$$$
>  <Compound>
OC[C@@H](O)[C@@H](O[C@H]1O[C@H](CO)[C@@H](O)[C@H](O)[C@H]1O)[C@H](O)[C@@H](O)CO [4-O-α-D-glucopyranosyl-D-glucitol] + O

>  <Obs Value>
1.536

$$$$
>  <Compound>
OC[C@@H](O)[C@@H](O)[C@H](O)[C@H](O)CO [mannitol] + O

>  <Obs Value>
1.142

$$$$
>  <Compound>
OC[C@@H](O)[C@@H](O)[C@H](O)[C@@H](O)CO [D-sorbitol] + O

>  <Obs Value>
1.079

$$$$

---

Protocol Details: cn = amount concentration of the nth substance listed, in mol/dm3
Settings: 323.15 K; 101 kPa; Liquid; c1 = 0.2
Endpoint Label: mass density (kg/m3)

>  <Molecule>
OC[C@@H](O)[C@@H](O)[C@H](O)[C@H](O)CO [mannitol] + O

>  <mass density (kg/m3)>
999.82

$$$$
>  <Molecule>
OC[C@@H](O)[C@@H](O[C@H]1O[C@H](CO)[C@@H](O)[C@H](O)[C@H]1O)[C@H](O)[C@@H](O)CO [4-O-α-D-glucopyranosyl-D-glucitol] + O

>  <mass density (kg/m3)>
1008.6

$$$$
>  <Molecule>
OC[C@@H](O)[C@@H](O)CO [meso-1,2,3,4-butanetetrol] + O

>  <mass density (kg/m3)>
994.96

$$$$
>  <Molecule>
OC[C@@H](O)[C@@H](O)[C@H](O)[C@@H](O)CO [D-sorbitol] + O

>  <mass density (kg/m3)>
1000.54

$$$$
>  <Molecule>
OC[C@@H](O)[C@H](O)[C@@H](O)CO [xylitol] + O

>  <mass density (kg/m3)>
997.77

$$$$

---

Protocol Details: cn = amount concentration of the nth substance listed, in mol/dm3
Settings: 323.15 K; 101 kPa; Liquid; c1 = 0.5
Endpoint Label: mass density (kg/m3)

>  <Compound>
OC[C@@H](O)[C@@H](O)[C@H](O)[C@H](O)CO [mannitol] + O

>  <Obs Value>
1017.33

$$$$
>  <Compound>
OC[C@@H](O)[C@@H](O)[C@H](O)[C@@H](O)CO [D-sorbitol] + O

>  <Obs Value>
1018.5

$$$$
>  <Compound>
OC[C@@H](O)[C@H](O)[C@@H](O)CO [xylitol] + O

>  <Obs Value>
1012.42

$$$$
>  <Compound>
OC[C@@H](O)[C@@H](O[C@H]1O[C@H](CO)[C@@H](O)[C@H](O)[C@H]1O)[C@H](O)[C@@H](O)CO [4-O-α-D-glucopyranosyl-D-glucitol] + O

>  <Obs Value>
1035.36

$$$$
>  <Compound>
OC[C@@H](O)[C@@H](O)CO [meso-1,2,3,4-butanetetrol] + O

>  <Obs Value>
1005.23

$$$$

---

Protocol Details: cn = amount concentration of the nth substance listed, in mol/dm3
Settings: 303.15 K; 101 kPa; Liquid; c1 = 1
Endpoint Label: mass density (kg/m3)

>  <Compound>
OC[C@@H](O)[C@@H](O[C@H]1O[C@H](CO)[C@@H](O)[C@H](O)[C@H]1O)[C@H](O)[C@@H](O)CO [4-O-α-D-glucopyranosyl-D-glucitol] + O

>  <Obs Value>
1087.6

$$$$
>  <Compound>
OC[C@@H](O)[C@@H](O)CO [meso-1,2,3,4-butanetetrol] + O

>  <Obs Value>
1031.18

$$$$
>  <Compound>
OC[C@@H](O)[C@H](O)[C@@H](O)CO [xylitol] + O

>  <Obs Value>
1044.95

$$$$
>  <Compound>
OC[C@@H](O)[C@@H](O)[C@H](O)[C@@H](O)CO [D-sorbitol] + O

>  <Obs Value>
1058.99

$$$$

---

Protocol Details: cn = amount concentration of the nth substance listed, in mol/dm3
Settings: 313.15 K; 101 kPa; Liquid; c1 = 0.3
Endpoint Label: mass density (kg/m3)

>  <Compound>
OC[C@@H](O)[C@@H](O[C@H]1O[C@H](CO)[C@@H](O)[C@H](O)[C@H]1O)[C@H](O)[C@@H](O)CO [4-O-α-D-glucopyranosyl-D-glucitol] + O

>  <mass density (kg/m3)>
1021.62

$$$$
>  <Compound>
OC[C@@H](O)[C@@H](O)[C@H](O)[C@H](O)CO [mannitol] + O

>  <mass density (kg/m3)>
1010.72

$$$$
>  <Compound>
OC[C@@H](O)[C@@H](O)[C@H](O)[C@@H](O)CO [D-sorbitol] + O

>  <mass density (kg/m3)>
1011.14

$$$$
>  <Compound>
OC[C@@H](O)[C@H](O)[C@@H](O)CO [xylitol] + O

>  <mass density (kg/m3)>
1006.99

$$$$
>  <Compound>
OC[C@@H](O)[C@@H](O)CO [meso-1,2,3,4-butanetetrol] + O

>  <mass density (kg/m3)>
1003.09

$$$$

---

Protocol Details: cn = amount concentration of the nth substance listed, in mol/dm3
Settings: 293.15 K; 101 kPa; Liquid; c1 = 0.4
Endpoint Label: viscosity (mPa·s)

>  <Molecule>
OC[C@@H](O)[C@@H](O)[C@H](O)[C@H](O)CO [mannitol] + O

>  <Unit Tag>
mPa·s

>  <viscosity>
1.285

$$$$

[1] OC[C@@H](O)[C@@H](O)CO [meso-1,2,3,4-butanetetrol] + O
[2] OC[C@@H](O)[C@@H](O[C@H]1O[C@H](CO)[C@@H](O)[C@H](O)[C@H]1O)[C@H](O)[C@@H](O)CO [4-O-α-D-glucopyranosyl-D-glucitol] + O
# argmax over viscosity for candidates 1 and 2 Let me know the label of the one you choose.
2

---

Protocol Details: cn = amount concentration of the nth substance listed, in mol/dm3
Settings: 293.15 K; 101 kPa; Liquid; c1 = 0.4
Endpoint Label: mass density (kg/m3)

>  <Compound>
OC[C@@H](O)[C@@H](O)CO [meso-1,2,3,4-butanetetrol] + O

>  <Endpoint Label>
mass density

>  <Unit Tag>
kg/m3

>  <Obs Value>
1012.65

$$$$
>  <Compound>
OC[C@@H](O)[C@@H](O[C@H]1O[C@H](CO)[C@@H](O)[C@H](O)[C@H]1O)[C@H](O)[C@@H](O)CO [4-O-α-D-glucopyranosyl-D-glucitol] + O

>  <Endpoint Label>
mass density

>  <Unit Tag>
kg/m3

>  <Obs Value>
1036.21

$$$$
>  <Compound>
OC[C@@H](O)[C@@H](O)[C@H](O)[C@@H](O)CO [D-sorbitol] + O

>  <Endpoint Label>
mass density

>  <Unit Tag>
kg/m3

>  <Obs Value>
1024.07

$$$$
>  <Compound>
OC[C@@H](O)[C@@H](O)[C@H](O)[C@H](O)CO [mannitol] + O

>  <Endpoint Label>
mass density

>  <Unit Tag>
kg/m3

>  <Obs Value>
1023.03

$$$$
>  <Compound>
OC[C@@H](O)[C@H](O)[C@@H](O)CO [xylitol] + O

>  <Endpoint Label>
mass density

>  <Unit Tag>
kg/m3

>  <Obs Value>
1018.54

$$$$

---

Protocol Details: cn = amount concentration of the nth substance listed, in mol/dm3
Settings: 323.15 K; 101 kPa; Liquid; c1 = 0.6
Endpoint Label: viscosity (mPa·s)

>  <Molecule>
OC[C@@H](O)[C@@H](O[C@H]1O[C@H](CO)[C@@H](O)[C@H](O)[C@H]1O)[C@H](O)[C@@H](O)CO [4-O-α-D-glucopyranosyl-D-glucitol] + O

>  <Endpoint Label>
viscosity

>  <Obs Value>
0.9616

$$$$
>  <Molecule>
OC[C@@H](O)[C@H](O)[C@@H](O)CO [xylitol] + O

>  <Endpoint Label>
viscosity

>  <Obs Value>
0.6779

$$$$
>  <Molecule>
OC[C@@H](O)[C@@H](O)[C@H](O)[C@H](O)CO [mannitol] + O

>  <Endpoint Label>
viscosity

>  <Obs Value>
0.7458

$$$$
>  <Molecule>
OC[C@@H](O)[C@@H](O)CO [meso-1,2,3,4-butanetetrol] + O

>  <Endpoint Label>
viscosity

>  <Obs Value>
0.652

$$$$
>  <Molecule>
OC[C@@H](O)[C@@H](O)[C@H](O)[C@@H](O)CO [D-sorbitol] + O

>  <Endpoint Label>
viscosity

>  <Obs Value>
0.7037

$$$$
